Molecular target: N-terminal HiBiT tagged BCL6 (Homo sapiens)
Construct: expressed in transfected cells; host or cells: HT1080 (ATCC CCL-121), stably transduced with lentivirus pLV-UBC-N-HiBiT-BCL6-PGK-puro
Assay: HiBiT based degradation assay
Assay type: cell-based
Conditions: HT1080 cells expressing N-terminal HiBiT tagged BCL6; 5 hours of incubation; four-parameter logistic model; read-out: EC50 (5 hr)
For each record, write down the corresponding DC50.

Example compounds with recorded DC50:
>>> result("CNC(=O)COc1cc2cc(Nc3nc(N4CCN(C[C@H]5CCN(c6ccc7c(C8CCC(=O)NC8=O)nn(C)c7c6)C5)[C@H](C)C4)ncc3Cl)cnc2n(C(C)C)c1=O (some centres unmarked) [Compound 216c]")
"< 10 nM"
>>> result("CNC(=O)COc1cc2cc(Nc3cc(N4CCC(CN5CCN(c6cccc7c(C8CCC(=O)NC8=O)nn(C)c67)[C@@H](C)C5)CC4)ncc3Cl)cnc2n(C(C)C)c1=O (some centres unmarked) [Compound 217b]")
"≥ 1000 nM"
>>> result("CNC(=O)COc1cc2cc(Nc3nc(N4C[C@@H]5C[C@H]4CN5CC4CCN(c5cccc6c(C7CCC(=O)NC7=O)nn(C)c56)CC4)ncc3Cl)cnc2n(C(C)C)c1=O (some centres unmarked) [Compound 174b]")
"10 to 100 nM"
>>> result("CNC(=O)COc1cc2cc(Nc3nc(N4CCN([C@@H](C)C5CCN(c6cccc7c(C8CCC(=O)NC8=O)nn(C)c67)CC5)CC4)ncc3Cl)cnc2n(C(C)C)c1=O (single isomer, unassigned) [Compound 195a]")
"10 to 100 nM"

# context switch: different compound, same DC50
Qu. What value of measured DC50 is listed for CNC(=O)COc1cc2cc(Nc3nc(N4CC[C@H](CNc5cccc6c(C7CCC(=O)NC7=O)nn(C)c56)C4)ncc3Cl)cnc2n(C)c1=O (some centres unmarked) [Compound 122a] ?
Ans. 10 to 100 nM

---

Molecular target: N-terminal HiBiT tagged BCL6 (Homo sapiens, UniProt P41182)
Construct: expressed in transfected cells; host or cells: HT1080 (ATCC CCL-121), stably transduced with lentivirus pLV-UBC-N-HiBiT-BCL6-PGK-puro
Assay: HiBiT based degradation assay
Type: cell-based
Details: HT1080 cells expressing N-terminal HiBiT tagged BCL6; 5 hours of incubation; four-parameter logistic model; read-out: EC50 (5 hr)
For each record, write down the corresponding DC50.

Example molecules with recorded DC50:
>>> result("CNC(=O)COc1cc2cc(Nc3nc(N4CCN(CC5CCN(c6ccc7c(C8CCC(=O)NC8=O)nn(C)c7c6)CC5)[C@@H](C)C4)ncc3Cl)cnc2n(C(C)C)c1=O (some centres unmarked) [Compound 106a]")
"< 10 nM"
>>> result("CNC(=O)COc1cc2cc(Nc3nc(N4CCN(CC5CCN(c6cccc7c(C8CCC(=O)NC8=O)nn(C)c67)CC5)CC4)ncc3Cl)cnc2n(C2CC2)c1=O (centres unmarked) [Compound 150]")
"< 10 nM"
>>> result("CNC(=O)COc1cc2cc(Nc3nc(N4CCC5(CCC(CN6CCC(c7ccc8c(C9CCC(=O)NC9=O)nn(C)c8c7F)CC6)CC5)CC4)ncc3Cl)cnc2n(C(C)C)c1=O (centres unmarked) [Compound 240]")
"10 to 100 nM"
>>> result("CNC(=O)COc1cc2cc(Nc3nc(N4CCC(CN5CCN(c6cccc7c(C8CCC(=O)NC8=O)nn(C)c67)C[C@@H]5C)CC4)ncc3Cl)cnc2n(C(C)C)c1=O (some centres unmarked) [Compound 192a]")
"10 to 100 nM"

# context switch: different molecule, same DC50
Qu. Kindly state the measured DC50 obtained for CNC(=O)COc1cc2cc(Nc3nc(N4CC[C@@H](CNc5cccc6c(C7CCC(=O)NC7=O)nn(C)c56)C4)ncc3Cl)cnc2n(C)c1=O (some centres unmarked) [Compound 122b] with N-terminal HiBiT tagged BCL6 (Homo sapiens, UniProt P41182).
Ans. 10 to 100 nM

---

Molecular target: N-terminal HiBiT tagged BCL6 (Homo sapiens)
Construct: expressed in transfected cells; host or cells: HT1080 (ATCC CCL-121), stably transduced with lentivirus pLV-UBC-N-HiBiT-BCL6-PGK-puro
Experiment: HiBiT based degradation assay
Format: cell-based
Conditions: HT1080 cells expressing N-terminal HiBiT tagged BCL6; 5 hours of incubation; four-parameter logistic model; read-out: EC50 (5 hr)
Protocol: Human BCL6 protein coding open reading frame fused with N-terminal HiBiT coding sequence was synthesized from Integrated DNA Technologies (IDT). […] HT1080 cells expressing N-terminal HiBiT tagged BCL6 were dispensed into a 384-well plate pre-spotted with compounds at varying concentrations. […] After incubation, luminescence was read on a PHERAstar FSX Plate Reader (BMG). […]
experimental endpoint: DC50

>>> result("CNC(=O)COc1cc2cc(Nc3nc(N4CC5(CC[C@@H](Nc6ccc7c(C8CCC(=O)NC8=O)nn(C)c7c6)[C@H](C)C5)C4)ncc3Cl)cnc2n(C)c1=O (relative stereo) [Compound 156d]")
"< 0.01 µM"
>>> result("CNC(=O)COc1cc2cc(Nc3nc(N4CCC(CN5CCN(c6ccc7c(C8CCC(=O)NC8=O)nn(C)c7c6)C[C@H]5CO)CC4)ncc3Cl)cnc2n(C(C)C)c1=O (some centres unmarked) [Compound 232a]")
"< 0.01 µM"
>>> result("CNC(=O)COc1cc2cc(Nc3nc(N4CCN(c5cccc6c(C7CCC(=O)NC7=O)nn(C)c56)CC4)ncc3Cl)cnc2n(C(C)C)c1=O (centres unmarked) [Compound 166]")
"< 0.01 µM"
>>> result("CNC(=O)COc1cc2cc(Nc3nc(N4CCN(C(C)(C)C5CCN(c6ccc7c(C8CCC(=O)NC8=O)nn(C)c7c6)CC5)CC4)ncc3Cl)cnc2n(C(C)C)c1=O (centres unmarked) [Compound 158]")
"< 0.01 µM"

# context switch: different molecule, same DC50
Qu. What value of measured DC50 is listed for CNC(=O)COc1cc2cc(Nc3nc(N4CCN(CC5CCN(c6cccc7c(C8CCC(=O)NC8=O)nn(C)c67)CC5)[C@H](CO)C4)ncc3Cl)cnc2n(C(C)C)c1=O (some centres unmarked) [Compound 146a] ?
Ans. 0.01 to 0.1 µM

---

Molecular target: N-terminal HiBiT tagged BCL6 (Homo sapiens, UniProt P41182)
Construct: expressed in transfected cells; host or cells: HT1080 (ATCC CCL-121), stably transduced with lentivirus pLV-UBC-N-HiBiT-BCL6-PGK-puro
Assay: HiBiT based degradation assay
Assay type: cell-based
Conditions: HT1080 cells expressing N-terminal HiBiT tagged BCL6; 5 hours of incubation; BCL6 degradation normalized with DMSO control
experimental endpoint: Ymin (5 hr)

>>> result("CNC(=O)COc1cc2cc(Nc3nc(N4CCC(CN5CCN(c6ccc7c(C8CCC(=O)NC8=O)nn(C)c7c6)CC5)CC4)ncc3Cl)cnc2n(C)c1=O (stereo not drawn)")
"++++ (Ymin < 30%)"
>>> result("CNC(=O)COc1cc2cc(Nc3nc(N4CCC([C@@](C)(O)C5CCN(c6cccc7c(C8CCC(=O)NC8=O)nn(C)c67)CC5)CC4)ncc3Cl)cnc2n(C(C)C)c1=O (single isomer, unassigned) [Compound 194a]")
"++++ (Ymin < 30%)"

---

Target: N-terminal HiBiT tagged BCL6 (Homo sapiens)
Construct: expressed in transfected cells; host or cells: HT1080 (ATCC CCL-121), stably transduced with lentivirus pLV-UBC-N-HiBiT-BCL6-PGK-puro
Test: HiBiT based degradation assay
Type: cell-based
Conditions: HT1080 cells expressing N-terminal HiBiT tagged BCL6; 5 hours of incubation; BCL6 degradation normalized with DMSO control
experimental endpoint: Ymin (5 hr)

Example molecules with recorded Ymin (5 hr):
>>> result("CNC(=O)COc1cc2cc(Nc3nc(N4CC[C@@H](CN5CCN(c6ccc7c(C8CCC(=O)NC8=O)nn(C)c7c6)CC5)[C@H](C)C4)ncc3Cl)cnc2n(C(C)C)c1=O (some centres unmarked) [Compound 176d]")
"+++ (30% ≤ Ymin < 50%)"
>>> result("CNC(=O)COc1cc2cc(Nc3nc(N4CCC(CN5CCN(c6cccc7c(C8CCC(=O)NC8=O)nn(C)c67)[C@H](C)C5)CC4)ncc3Cl)cnc2n(C(C)C)c1=O (some centres unmarked) [Compound 169b]")
"++++ (Ymin < 30%)"
>>> result("CNC(=O)COc1cc2cc(Nc3nc(N4CCC5(CCC(CN6CCN(c7ccc8c(C9CCC(=O)NC9=O)nn(C)c8c7)CC6)CC5)CC4)ncc3Cl)cnc2n(C(C)C)c1=O (centres unmarked) [Compound 204]")
"++++ (Ymin < 30%)"
>>> result("CNC(=O)COc1cc2cc(Nc3nc(N4CCN(CCC5CCN(c6cccc7c(C8CCC(=O)NC8=O)nn(C)c67)CC5)CC4)ncc3Cl)cnc2n(C)c1=O (centres unmarked) [Compound 115]")
"+++ (30% ≤ Ymin < 50%)"

Qu. What value of measured Ymin (5 hr) is listed for CNC(=O)COc1cc2cc(Nc3nc(N4CC[C@H](CN5CCN(c6ccc7c(C8CCC(=O)NC8=O)nn(C)c7c6)CC5)[C@@H](C)C4)ncc3Cl)cnc2n(C(C)C)c1=O (some centres unmarked) [Compound 176b] ?
Ans. +++ (30% ≤ Ymin < 50%)
